- experimental_protocol: recombinant UMI read abundance after kanamycin selection (control-corrected) (log10(CPM+1)); higher = more efficient recombination; extreme values may be limits of the assay; sequences stand for … in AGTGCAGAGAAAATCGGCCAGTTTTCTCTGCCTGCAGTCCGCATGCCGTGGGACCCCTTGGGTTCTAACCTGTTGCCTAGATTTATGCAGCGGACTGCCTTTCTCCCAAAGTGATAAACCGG…AGGTTGGTTTCACT; site = the 11-nt donor;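 further: IS621 bridge recombinase in Escherichia coli cells against a fixed T5 target plasmid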
assay_readout: recombinant UMI read abundance (log10)
Just the number.

CTAGTCACATGGACCGGTTTTCCCGGTAATCCGTATTTGGG (site CCAGTCACTCC) : 0.0093
TGAAGAACATGGACCGGTTTTCCCGGTAATCCGTATTTGGC (site TGAAGAACTGC) : 2.29
GTGCTCTCATGGACCGGTTTTCCCGGTAATCCGTATTTGTG (site GTGCTCTCTCA) : 1.28
CGGCCGGCATGGACCGGTTTTCCCGGTAATCCGTATTTGGC (site CGGCCGGCTGC) : 1.21

Now, please, on to the next sequence.
The reported recombinant UMI read abundance (log10) of the sequence CGGTCATCATGGACCGGTTTTCCCGGTAATCCGTATTTGCA (site CGGTCATCTTG) was 0.39
